Recorded pIC50 by entry
# Tested on: HCT-116
# ASSAY_REMARKS: Cytotoxicity against human HCT116 cells after 72 hrs by MTT assay
# Type: functional, cell-based
# EXPERIMENTAL_PARAMETERS: HCT-116, 72 h
Scale: negative log10 of molar concentration, which is what pIC50 denotes.

Example entries and their recorded answers appear below.
INSERT INTO assay_data (compound, reported_value) VALUES
  ('CC[C@@]12CC(C(=O)OC)=C3Nc4cc5c(cc4[C@@]34CCN(C[C@H]3O[C@H]31)[C@@H]24)[C@@H]1[C@H](O5)[C@@H](O)[C@@]2(CC)CC(C(=O)OC)=C3Nc4c(cc(O)c(OC)c4OC)[C@@]34CCN1[C@@H]24', 6.10),
  ('CC[C@@]12CC(C(=O)OC)=C3Nc4cc5c(cc4[C@@]34CCN(C[C@H]3O[C@H]31)[C@@H]24)[C@@H]1[C@H](O5)[C@@H](O)[C@@]2(CC)CC(C(=O)OC)=C3Nc4c(ccc(OC)c4O)[C@@]34CCN1[C@@H]24', 5.96),
  ('CC[C@@]12CC(C(=O)OC)=C3Nc4cc5c(cc4[C@@]34CCN(C[C@H](O)[C@H]1O)[C@@H]24)[C@@H]1[C@H](O5)[C@@H](O)[C@@]2(CC)CC(C(=O)OC)=C3Nc4c(cc(O)c(OC)c4OC)[C@@]34CCN1[C@@H]24', 5.68),
  ('CC[C@@]12CC[C@@H]3N(C)c4ccc([C@@H]5[C@H]6O[C@H]6[C@@]6(CC)CC(C(=O)OC)=C7Nc8c(cc(O)c(OC)c8OC)[C@@]78CCN5[C@@H]68)cc4[C@@]34CCN(C[C@H]3O[C@H]31)[C@@H]24', 5.18),
  ('CC[C@@]12CC(C(=O)OC)=C3N=C4C(=CC(=O)C(OC)=C4OC)[C@@]34CCN([C@@H]3c5cc6c(cc5O[C@@H]3[C@H]1O)NC1=C(C(=O)OC)C[C@]3(CC)[C@@H]5O[C@@H]5CN5CC[C@@]16[C@@H]53)[C@H]42', 6.70),
  ('CC[C@]12C=CCN3CC[C@]4(C(=C(C(=O)OC)C1)Nc1cc5c(cc14)[C@@H]1[C@H](O5)[C@@H](O)[C@@]4(CC)CC(C(=O)OC)=C5N=C6C(=CC(=O)C(OC)=C6OC)[C@@]56CCN1[C@H]64)[C@@H]32', 7.00),
  ('CC[C@@]12CC(C(=O)OC)=C3N=C4C(=CC(=O)C(OC)=C4OC)[C@@]34CCN([C@@H]3c5cc6c(cc5O[C@@H]3[C@H]1O)NC1=C(C(=O)OC)C[C@]3(CC)[C@H](O)[C@@H](O)CN5CC[C@@]16[C@@H]53)[C@H]42', 5.51),
  ('CC[C@@]12C=C(C(=O)OC)C3=Nc4c(cc(O)c(OC)c4OC)[C@@]34CCN([C@@H]3c5cc6c(cc5O[C@@H]3[C@H]1O)NC1=C(C(=O)OC)C[C@]3(CC)[C@@H]5O[C@@H]5CN5CC[C@@]16[C@@H]53)[C@@H]24', 5.37),
  ('CC[C@@]12CC(C(=O)OC)=C3N=C4C(=CC(=O)C(O)=C4OC)[C@@]34CCN([C@@H]3c5cc6c(cc5O[C@@H]3[C@H]1O)NC1=C(C(=O)OC)C[C@]3(CC)[C@@H]5O[C@@H]5CN5CC[C@@]16[C@@H]53)[C@H]42 (stereo in doubt; 7)', 6.30);

// next item, pIC50 requested
[in] Answer with the recorded pIC50 for the compound listed here: "CC[C@@]12CC(C(=O)OC)=C3N=C4C(=CC(=O)C(OC)=C4OC)[C@@]34CCN([C@H](c3ccc5c(c3)[C@@]36CCN7C[C@H]8O[C@H]8[C@@](CC)(CC[C@@H]3N5C)[C@H]76)[C@H]3O[C@H]31)[C@H]42"
[out] 5.62
